Data provenance is paper PMC9467613.

Please provide measured kon for the entries that follow.
# tgt: B7-H4 purified monomeric recombinant human protein (Homo sapiens, UniProt Q7Z7D3)
# Sequence (Q7Z7D3 25-259): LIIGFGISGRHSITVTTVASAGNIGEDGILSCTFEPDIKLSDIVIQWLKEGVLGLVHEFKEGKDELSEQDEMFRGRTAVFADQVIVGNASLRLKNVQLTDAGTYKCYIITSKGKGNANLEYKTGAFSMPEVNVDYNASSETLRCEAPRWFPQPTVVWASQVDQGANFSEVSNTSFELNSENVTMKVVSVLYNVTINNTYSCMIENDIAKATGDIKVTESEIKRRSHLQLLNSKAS
# assay-method-text: SPR
Numbers only, in M⁻¹ s⁻¹.

Worked examples, 5 binders total:
# binder, endpoint-name, endpoint-value
records = [
    ("A04 (scFv, V domains shown) VH: EVQLVESGGGVVQPGRSLRLSCAASGFTFSSRSMNWVRQAPGKGLEWVSAISGSGDTTYYADSVKGRFTISRDNSKNTLYLQMNSLRAEDTAVYYCARKRWYGMDVWGQGTTVTVSS VL: SYELTQPPSVSVAPGKTARITCGGNNIGSKSVHWYQQKPGQAPVLVVYDDSDRPSGIPERFSGSNSGNTATLTISRVEAGDEADYYCQVWDRGMIFGTGTKLTVL", "kon", 310000),
    ("B07 (scFv, V domains shown) VH: EVQLVESGGGVVQPGRSLRLSCAASGFTFGDRAMNWVRQAPGKGLEWVSAISGSGATTYYADSVKGRFTISRDNSKNTLYLQMNSLRAEDTAVYYCARKRWYGMDVWGQGTTVTVSS VL: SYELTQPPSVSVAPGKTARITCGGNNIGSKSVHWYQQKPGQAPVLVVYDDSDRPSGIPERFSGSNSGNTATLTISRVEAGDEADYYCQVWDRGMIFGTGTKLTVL", "kon", 330000),
    ("B09 (scFv, V domains shown) VH: EVQLVESGGGVVQPGRSLRLSCAASGFTYSSRAMNWVRQAPGKGLEWVSAISSSGTTTYYADSVKGRFTISRDNSKNTLYLQMNSLRAEDTAVYYCARKRWYGMDVWGQGTTVTVSS VL: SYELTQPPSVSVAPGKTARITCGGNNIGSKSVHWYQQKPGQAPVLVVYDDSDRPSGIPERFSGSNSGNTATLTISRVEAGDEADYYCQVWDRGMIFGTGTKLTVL", "kon", 210000),
    ("A10 (scFv, V domains shown) VH: EVQLVESGGGVVQPGRSLRLSCAASGFTFSSRSMNWVRQAPGKGLEWVSAISGTGYTTYYADSVKGRFTISRDNSKNTLYLQMNSLRAEDTAVYYCARKRWYGMDVWGQGTTVTVSS VL: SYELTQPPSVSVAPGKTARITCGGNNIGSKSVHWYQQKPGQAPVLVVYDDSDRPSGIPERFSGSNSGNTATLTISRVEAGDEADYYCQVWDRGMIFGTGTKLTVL", "kon", 140000),
    ("B11 (scFv, V domains shown) VH: EVQLVESGGGVVQPGRSLRLSCAASGFTFTSRAMNWVRQAPGKGLEWVSAISGSGATAYYADSVKGRFTISRDNSKNTLYLQMNSLRAEDTAVYYCARKRWYGMDVWGQGTTVTVSS VL: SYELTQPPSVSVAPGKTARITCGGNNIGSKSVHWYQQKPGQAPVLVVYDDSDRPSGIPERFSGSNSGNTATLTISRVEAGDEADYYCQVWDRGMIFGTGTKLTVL", "kon", 180000),
]

Exercise: // lookup kon for A08 (scFv, V domains shown) VH: EVQLVESGGGVVQPGRSLRLSCAASGFTFGDRAMNWVRQAPGKGLEWVSAISSSGTTSYYADSVKGRFTISRDNSKNTLYLQMNSLRAEDTAVYYCARKRWYGMDVWGQGTTVTVSS VL: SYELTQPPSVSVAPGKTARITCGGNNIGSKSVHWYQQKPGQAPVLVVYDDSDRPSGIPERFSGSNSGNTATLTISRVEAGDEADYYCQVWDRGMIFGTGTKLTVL
Key: 310000
